Test system: Calf thymus DNA
Experiment: Binding affinity to calf thymus DNA assessed as change in melting temperature at a compound to DNA molar ratio of 1 by UV-vis spectroscopy
Type: nucleic-acid assay
Conditions: Bos taurus
Each entry falls in a class defined on ΔTm; the bands are one = under 7 °C, two = from 7 °C up to 10 °C, three = 10 °C and over

Smiles data | Class name
CN(C)CCNC(=O)c1cc2c3ccccc3[nH]c2c2ncccc12 | two
CN(C)CCCNC(=O)c1cc2c3cc(Cl)ccc3[nH]c2c2ccncc12 | three
CN(C)CCNC(=O)c1cc2c3cccc(Cl)c3[nH]c2c2ncccc12 | two
CN(C)CCNC(=O)c1cc2c3cc(Cl)ccc3[nH]c2c2ccncc12 | three
CN(C)CCNC(=O)c1cc2c3cc(Cl)ccc3[nH]c2c2ncccc12 | three
O=C(NCCCN1CCOCC1)c1cc2c3cccc(Cl)c3[nH]c2c2ncccc12 | one
CN(C)CCCNC(=O)c1cc2c3cc(Cl)ccc3[nH]c2c2ncccc12 | three
CN(C)CCCNC(=O)c1cc2c3cccc(Cl)c3[nH]c2c2ncccc12 | three
CN(C)CCCNC(=O)c1cc2c3ccccc3[nH]c2c2ncccc12 | two
CN(C)CCCNC(=O)c1cc2c3ccccc3[nH]c2c2sccc12 | one

---

Recorded ΔTm for the following molecules
System: Calf thymus DNA
Assay: Binding affinity to calf thymus DNA assessed as change in melting temperature at a compound to DNA molar ratio of 0.1 by UV-vis spectroscopy
Assay type: nucleic-acid assay
Details: Bos taurus
Value type: ΔTm (°C)

Smiles data | Assay value
O=C(NCCCN1CCOCC1)c1cc2c3cccc(Cl)c3[nH]c2c2ncccc12 | 0
CN(C)CCCNC(=O)c1cc2c3cc(Cl)ccc3[nH]c2c2ccncc12 | 3.6
CN(C)CCNC(=O)c1cc2c3cccc(Cl)c3[nH]c2c2ncccc12 | 1.1
CN(C)CCCNC(=O)c1cc2c3cc(Cl)ccc3[nH]c2c2ncccc12 | 3
CN(C)CCCNC(=O)c1cc2c3cccc(Cl)c3[nH]c2c2ncccc12 | 2.6
CN(C)CCCNC(=O)c1cc2c3ccccc3[nH]c2c2sccc12 | 0
CN(C)CCNC(=O)c1cc2c3cc(Cl)ccc3[nH]c2c2ccncc12 | 5.3
CN(C)CCNC(=O)c1cc2c3cc(Cl)ccc3[nH]c2c2ncccc12 | 1.5
CN(C)CCNC(=O)c1cc2c3ccccc3[nH]c2c2ncccc12 | 0
CN(C)CCCNC(=O)c1cc2c3ccccc3[nH]c2c2ncccc12 | 0

---

Tested on: Nucleic Acid
Test: Binding affinity to poly(dA).poly(dT) duplex DNA assessed as change in thermal melting temperature at compound to DNA ratio of 0.25 by UV-vis spectroscopy
Type: nucleic-acid assay
Lab note: compare ΔTm against 10 °C. Equal or greater, write Condition met. Smaller, write Condition not met.

Smiles data | Measured on | Class name
CN(C)CCCNC(=O)c1cc2c3cccc(Cl)c3[nH]c2c2ncccc12 | Nucleic Acid | Condition met
CN(C)CCNC(=O)c1cc2c3cc(Cl)ccc3[nH]c2c2ncccc12 | Nucleic Acid | Condition met
CN(C)CCCNC(=O)c1cc2c3cc(Cl)ccc3[nH]c2c2ncccc12 | Nucleic Acid | Condition not met
CN(C)CCNC(=O)c1cc2c3ccccc3[nH]c2c2ncccc12 | Nucleic Acid | Condition met
CN(C)CCCNC(=O)c1cc2c3ccccc3[nH]c2c2ncccc12 | Nucleic Acid | Condition not met
CN(C)CCNC(=O)c1cc2c3cc(Cl)ccc3[nH]c2c2ccncc12 | Nucleic Acid | Condition met
O=C(NCCCN1CCOCC1)c1cc2c3cccc(Cl)c3[nH]c2c2ncccc12 | Nucleic Acid | Condition not met
CN(C)CCNC(=O)c1cc2c3cccc(Cl)c3[nH]c2c2ncccc12 | Nucleic Acid | Condition not met
CN(C)CCCNC(=O)c1cc2c3ccccc3[nH]c2c2sccc12 | Nucleic Acid | Condition met
CN(C)CCCNC(=O)c1cc2c3cc(Cl)ccc3[nH]c2c2ccncc12 | Nucleic Acid | Condition met

Hey, just so you know, these numbers are from ChEMBL document CHEMBL1153602.
